# credit: ChEMBL document CHEMBL1121583

Potency listing for selected compounds.
- Test system: Mus musculus
- method: Relative topical anti inflammatory activity was measured in mice by comparing with cumulative potency of betamethasone valerate by using croton oil ear assay
- Assay type: functional
Simply state the number, no unit and no words.

Reference set, count: 5
Entry under review: CCC(=O)OCC(=O)[C@@]1(OC(=O)CC)[C@H](C)CC2C3C=CC4=CC(=O)C=C[C@]4(C)C3C(O)C[C@@]21C (stereo partly drawn) . Reported Potency? 27

And for CCC(=O)OCC(=O)[C@@]1(OC(=O)CC)[C@H](C)CC2C3C(C(O)C[C@@]21C)[C@@]1(C)C=CC(=O)C=C1C[C@H]3Br (stereo partly drawn) ? 120

Now this one: CCC(=O)OCC(=O)[C@@]1(OC(=O)CC)[C@H](C)CC2C3C(C(O)C[C@@]21C)[C@@]1(C)C=CC(=O)C=C1C[C@H]3I (stereo partly drawn) 36

One more compound: CC(=O)OCC(=O)[C@@]1(O)[C@@H](C)CC2C3C(C(O)C[C@@]21C)[C@@]1(C)C=CC(=O)C=C1C[C@H]3F (stereo partly drawn) 16

Consider next the compound CC(=O)OCC(=O)[C@@]1(O)[C@@H](C)CC2C3C(C(O)C[C@@]21C)[C@@]1(C)C=CC(=O)C=C1C[C@H]3Br (stereo partly drawn) in the same way. 94

Below: the item to evaluate.
Recorded Potency for CC(=O)OCC(=O)[C@@]1(O)[C@@H](C)CC2C3C=CC4=CC(=O)C=C[C@]4(C)C3C(O)C[C@@]21C (stereo partly drawn) , please? 29
